Assay: Cytotoxicity against human MT4 cells assessed as reduction in cell viability measured after 4 days by CellTiter 96 Aqueous One Solution Cell Proliferation Assay
Type: toxicity, cell-based
Conditions used: time 4 day
Exercise: state measured CC50 at 96 h for each of the compounds provided.

Task item: Item C=C1CC[C@H]2[C@@H](/C=C(\C)C(=O)[C@@]3(OC(C)=O)C[C@H](C)[C@H](OC(=O)c4ccccc4)C3[C@H]1OC(C)=O)C2(C)C (stereo partly drawn) : provide CC50 at 96 h
Reply: > 100 µM

Task item: Return CC50 at 96 h for the following compound: C/C1=C\[C@@H]2[C@H](CC/C(CSC(=O)Oc3ccc(F)cc3)=C\C3[C@@H](O)[C@@H](C)C[C@]3(O)C1=O)C2(C)C (stereo partly drawn)
Reply: 45.2 µM

Task item: For the compound C/C1=C\[C@@H]2[C@H](CC/C(CSC(=O)Oc3c(C)cccc3C)=C\C3[C@@H](O)[C@@H](C)C[C@]3(O)C1=O)C2(C)C (stereo partly drawn) , give its reported CC50 at 96 h.
Reply: > 100 µM

---

Assay: Selectivity index, ratio of CC50 for cytotoxicity against human MT4 cells to EC50 for antiviral activity against HIV-2 ROD infected in human MT4 cells
Format: toxicity, cell-based
Conditions used: read-out: Ratio CC50/EC50
Test readout: selectivity ratio

Task item: Check the records and state selectivity ratio for C/C1=C\[C@@H]2[C@H](CC/C(CSC(=O)Oc3ccc(C)cc3)=C\C3[C@@H](O)[C@@H](C)C[C@]3(O)C1=O)C2(C)C (stereo partly specified)
Reply: > 6.8

---

Assay: Selectivity index, ratio of CC50 for cytotoxicity against human MT4 cells to EC50 for antiviral activity against HIV-1 NL 4.3 infected in human MT4 cells
Assay type: toxicity, cell-based
Conditions used: read-out: Ratio CC50/EC50
Test readout: selectivity ratio

Task item: Answer with the recorded selectivity ratio of C/C1=C\[C@@H]2[C@H](CC/C(CSC(=O)Oc3ccc(C)cc3)=C\C3[C@@H](O)[C@@H](C)C[C@]3(O)C1=O)C2(C)C (stereo partly specified) only.
Reply: > 4
